Exercise: for every item that follows, state its recorded pseudovirus neutralization IC50.
- study system: SARS-CoV-2 WA-1 Spike on pseudovirions (SARS-CoV-2, UniProt P0DTC2 14-1255)
- method summary: cell-based or functional assay
One number for each entry, in µg/mL.

# count of solved cases: 3
Data request: Would you mind telling me what pseudovirus neutralization IC50 value was observed for ShAb01H06K (ShAb01Hole-06Knob) (bispecific antibody, V domains shown) V domain 1: ARVDQTPRSVTKETGESLTINCVLRDSNCALSSTHWYRKKSGSTNEERILQGRRYVETVNSGSKSFSLRINDLRVEDSGTYRCKVYWGNSWQDKFCPGLGSYEYGDGTAVTVNS V domain 2: ARVDQTPRSVTKETGESLTINCVLRDASYALGSTCWYRKKSGSTNEESISKGGRYVETVNSGSKSFSLRINDLTVEDGGTYRCGVGRGLGVGCDYPLCSYSYAACGDGTAVTVNS ?
Data returned: 0.065

Data request: Would you mind telling me what pseudovirus neutralization IC50 value was observed for ShAb01-Foldon (ShAb01 VNAR-KESlinker-Foldon-3c-His8-Strep) (VNAR) VNAR: ARVDQTPRSVTKETGESLTINCVLRDSNCALSSTHWYRKKSGSTNEERILQGRRYVETVNSGSKSFSLRINDLRVEDSGTYRCKVYWGNSWQDKFCPGLGSYEYGDGTAVTVNK ?
Data returned: 0.309

Data request: Would you mind telling me what pseudovirus neutralization IC50 value was observed for ShAb02-Foldon (ShAb02 VNAR-KESlinker-Foldon-3c-His8-Strep) (VNAR) VNAR: ARVDQTPQTITKETGESLTINCVLRDSNCALASTDWYRKKSGSTNEESISKGGRYVETVNSGSKSFSLRINDLTVEDSGTYRCNAWDSWETRQLKCDYDVYGGGTVVTVNK ?
Data returned: 0.289

Then this binder:
Data request: Would you mind telling me what pseudovirus neutralization IC50 value was observed for ShAb06H02K (ShAb06Hole-02Knob) (bispecific antibody, V domains shown) V domain 1: ARVDQTPRSVTKETGESLTINCVLRDASYALGSTCWYRKKSGSTNEESISKGGRYVETVNSGSKSFSLRINDLTVEDGGTYRCGVGRGLGVGCDYPLCSYSYAACGDGTAVTVNS V domain 2: ARVDQTPQTITKETGESLTINCVLRDSNCALASTDWYRKKSGSTNEESISKGGRYVETVNSGSKSFSLRINDLTVEDSGTYRCNAWDSWETRQLKCDYDVYGGGTVVTVNS ?
Data returned: 0.03
